# test_system: peripheral-type receptor sites for benzodiazepines (Rattus norvegicus, UniProt P16257)
endpoint_label: Ki (nM)
Give a bare numeral; the unit nM is implied.

peripheral-type receptor sites for benzodiazepines (Rattus norvegicus, UniProt P16257) Ki of CCN(CC)C(=O)c1nc(-c2ccccc2Cl)nc2ccccc12 is 270

Entry CCC(C)N(CC)C(=O)c1cc(-c2ccccc2Cl)nc2ccccc12 (stereo not shown) , peripheral-type receptor sites for benzodiazepines (Rattus norvegicus, UniProt P16257) data, Ki value: 9

// Ki (peripheral-type receptor sites for benzodiazepines (Rattus norvegicus, UniProt P16257)) for CCN(CC)C(=O)c1cc(-c2ccc(F)cc2)nc2ccccc12 = 160

Given the molecule CCN(CC)C(=O)c1cc(-c2ccc(Cl)c(Cl)c2)nc2ccccc12 and test system peripheral-type receptor sites for benzodiazepines (Rattus norvegicus, UniProt P16257), the measured Ki is 117

* * *

# test_system: cerebral receptor sites for benzodiazepines
# experiment_summary: Affinity for the cerebral-type receptor sites for benzodiazepines: displacement of 3H-diazepam on rat brain membranes
# applied_conditions: 3H-diazepam displacement
Class (by Ki) -- lower bin (below 90 nM), middle bin (90 nM to below 300 nM), upper bin (300 nM or more)

Lab log: O=C1CCN(C(=O)c2nc(-c3ccccc3)nc3ccccc23)CC1 — assign Ki category middle bin

Form field 'band' for CNC1=Nc2ccc(Cl)cc2C(c2ccccc2)=[N+]([O-])C1 [Chlorodiazepoxide, reference compound] lower bin

Which Ki category applies to CCN(CC)C(=O)c1cc(-c2ccc(F)cc2)nc2ccccc12 here? middle bin

Place this compound in its band: O=C(c1cc(-c2ccccc2)nc2ccccc12)N1CCCCC1 lower bin

Which of the defined bands does the recorded Ki of O=C(c1cc(-c2ccccc2)nc2ccccc12)N1CCCC1 sit within? middle bin

State the class of the compound shown: CCN(CC)C(=O)c1cc(-c2ccc(C)cc2)nc2ccccc12 upper bin

Classify this compound: O=C(c1nc(-c2ccccc2)nc2ccccc12)N1CCCCC1 lower bin

Class for CCN(CC)C(=O)c1cc(-c2ccccc2F)nc2ccccc12 ? upper bin

Using the reported Ki, which band applies to CCN(CC)C(=O)c1cc(-c2ccccc2)nc2ccccc12 ? lower bin

Exam item: assign CCN(CC)C(=O)c1nc(-c2ccccc2)nc2ccccc12 to the correct category. upper bin

Hey, which category is CCN(CCC1CCNCC1)C(=O)c1cc(-c2ccccc2)nc2ccccc12 in, do you know? upper bin

Into which category would you place O=C(c1cc(-c2ccccn2)nc2ccccc12)N1CCCCC1 ? middle bin
